Answer each item with its documented half-life.
Assay: Liver microsomal stability, human
Type: in vitro ADME
Conditions: pH 7.4; human liver microsomes, 0.5 mg/mL protein, 1 μM compound, NADPH; >80% remaining at 45 min denoted >140; read-out: Liver Microsomal Stability: t1/2 (min); human
Experimental: Compounds were subjected to the following assays to investigate liver microsomal stability, permeability and plasma protein binding. Pooled liver microsomes were purchased from a reputable commercial supplier and stored at −80° C. prior to use. […] Following protein precipitation, the sample supernatants were combined in cassettes of up to 4 compounds, internal standard added, and samples analysed by LC-MS/MS. […] Subsequently, half-life (t1/2) and intrinsic clearance (CLint) were calculated.

Request: Using the record for CCn1cc(C(=O)N[C@H]2N=C(c3ccccc3)c3ccccc3NC2=O)c(-c2ccc(NC3CC3)nc2F)n1 [Example 25] , report its half-life.
Response: 82.8 min

Request: Using the record for CCn1ncc(C(=O)N[C@H]2N=C(c3ccccc3)c3ccccc3NC2=O)c1-c1ncc(NC(C)C)cc1F [Example 8] , report its half-life.
Response: 193 min

Request: Using the record for O=C(N[C@H]1N=C(c2ccccc2)c2cccc(F)c2NC1=O)c1cn(C2CCOCC2)nc1-c1ccc(NC2CC2)nc1F [Example 32] , report its half-life.
Response: 298 min

Request: Using the record for CCNc1ccc(-c2c(C(=O)N[C@H]3N=C(c4ccccc4)c4ccccc4NC3=O)cnn2CC)c(F)n1 [Example 2] , report its half-life.
Response: 44.4 min

---

Experiment: Rat pharmacokinetics in vivo
Settings: male Sprague Dawley rats, 8 h, doses 1 mg/kg (IV) and 10 mg/kg (PO)
Answer each item with its documented C 8 h.
Please give a number only; it is taken to be in ng/mL.

Request: Using the record for CC(C)(C)n1cc(C(=O)N[C@H]2N=C(c3ccccc3)c3cccc(F)c3NC2=O)c(-c2ccc(NC3CC3)nc2F)n1 , report its C 8 h.
Response: 444

Request: Using the record for CCn1ncc(C(=O)N[C@H]2N=C(c3ccccc3)c3cccc(F)c3NC2=O)c1-c1ccc(NC2CC2)nc1F , report its C 8 h.
Response: 673

Request: Using the record for O=C(N[C@H]1N=C(c2ccccc2)c2ccccc2NC1=O)c1cnn(C2CCOCC2)c1-c1ccc(NC2CC2)nc1F , report its C 8 h.
Response: 25.7

Request: Using the record for O=C(N[C@H]1N=C(c2ccccc2)c2cccc(F)c2NC1=O)c1cn(C2CCOCC2)nc1-c1ccc(NC2CC2)nc1F , report its C 8 h.
Response: 84

Request: Using the record for CCNc1ccc(-c2c(C(=O)N[C@H]3N=C(c4ccccc4)c4cccc(F)c4NC3=O)cnn2C2CCOCC2)c(F)n1 , report its C 8 h.
Response: 182

Request: Using the record for CCn1cc(C(=O)N[C@H]2N=C(c3ccccc3)c3cccc(F)c3NC2=O)c(-c2ccc(NC3CC3)nc2F)n1 , report its C 8 h.
Response: 919

Request: Using the record for O=C(N[C@H]1N=C(c2ccccc2)c2cccc(F)c2NC1=O)c1cnn(C2COC2)c1-c1ccc(NC2CC2)nc1F , report its C 8 h.
Response: 315

---

Answer each item with its documented half-life.
Assay: Rat pharmacokinetics in vivo
Conditions: rat, in vivo; male Sprague Dawley rats, PO 10 mg/kg; read-out: PO t½ (converted)
Please give a number only; it is taken to be in h.

Request: Using the record for CC(C)Nc1ccc(-c2c(C(=O)N[C@H]3N=C(c4ccccc4)c4cccc(F)c4NC3=O)cnn2C2CCOCC2)c(F)n1 [Example 22] , report its half-life.
Response: 2.6

Request: Using the record for O=C(N[C@H]1N=C(c2ccccc2)c2cccc(F)c2NC1=O)c1cnn(C2COC2)c1-c1ccc(NC2CC2)nc1F [Example 19] , report its half-life.
Response: 3

Request: Using the record for CCn1cc(C(=O)N[C@H]2N=C(c3ccccc3)c3ccccc3NC2=O)c(-c2ccc(NC3CC3)nc2F)n1 [Example 25] , report its half-life.
Response: 2.7

Request: Using the record for CCn1cc(C(=O)N[C@H]2N=C(c3ccccc3)c3cccc(F)c3NC2=O)c(-c2ccc(NC3CC3)nc2F)n1 [Example 26] , report its half-life.
Response: 2.6

Request: Using the record for CCNc1ccc(-c2c(C(=O)N[C@H]3N=C(c4ccccc4)c4cccc(F)c4NC3=O)cnn2C2CCOCC2)c(F)n1 [Example 24] , report its half-life.
Response: 3.4

Request: Using the record for O=C(N[C@H]1N=C(c2ccccc2)c2cccc(F)c2NC1=O)c1cnn(C2CCOCC2)c1-c1ccc(NC2CC2)nc1F [Example 21] , report its half-life.
Response: 3.2

Request: Using the record for CCn1ncc(C(=O)N[C@H]2N=C(c3ccccc3)c3ccccc3NC2=O)c1-c1ccc(NC2CC2)nc1F [Example 4] , report its half-life.
Response: 2.2

Request: Using the record for O=C(N[C@H]1N=C(c2ccccc2)c2ccccc2NC1=O)c1cnn(C2CCOCC2)c1-c1ccc(NC2CC2)nc1F [Example 20] , report its half-life.
Response: 1.4

Request: Using the record for O=C(N[C@H]1N=C(c2ccccc2)c2cccc(F)c2NC1=O)c1cn(C2CCOCC2)nc1-c1ccc(NC2CC2)nc1F [Example 32] , report its half-life.
Response: 5.2

Request: Using the record for CCn1ncc(C(=O)N[C@H]2N=C(c3ccccc3)c3cccc(F)c3NC2=O)c1-c1ccc(NC2CC2)nc1F [Example 11] , report its half-life.
Response: 2.2

Request: Using the record for CC(C)Nc1ccc(-c2c(C(=O)N[C@H]3N=C(c4ccccc4)c4ccccc4NC3=O)cnn2C2CCOCC2)c(F)n1 [Example 23] , report its half-life.
Response: 3

Request: Using the record for CC(C)(C)n1cc(C(=O)N[C@H]2N=C(c3ccccc3)c3cccc(F)c3NC2=O)c(-c2ccc(NC3CC3)nc2F)n1 [Example 30] , report its half-life.
Response: 3

Request: Using the record for CCn1ncc(C(=O)N[C@H]2N=C(c3ccccc3)c3ccccc3NC2=O)c1-c1ccc(NC(C)C)nc1F [Example 3] , report its half-life.
Response: 4.6

Entry source: patent US20220409629A1
